ASSAYED TARGET: GCG receptor (GCGR) (UniProt P47871 26-477, limits assumed)
Sequence (P47871 26-477 limits assumed): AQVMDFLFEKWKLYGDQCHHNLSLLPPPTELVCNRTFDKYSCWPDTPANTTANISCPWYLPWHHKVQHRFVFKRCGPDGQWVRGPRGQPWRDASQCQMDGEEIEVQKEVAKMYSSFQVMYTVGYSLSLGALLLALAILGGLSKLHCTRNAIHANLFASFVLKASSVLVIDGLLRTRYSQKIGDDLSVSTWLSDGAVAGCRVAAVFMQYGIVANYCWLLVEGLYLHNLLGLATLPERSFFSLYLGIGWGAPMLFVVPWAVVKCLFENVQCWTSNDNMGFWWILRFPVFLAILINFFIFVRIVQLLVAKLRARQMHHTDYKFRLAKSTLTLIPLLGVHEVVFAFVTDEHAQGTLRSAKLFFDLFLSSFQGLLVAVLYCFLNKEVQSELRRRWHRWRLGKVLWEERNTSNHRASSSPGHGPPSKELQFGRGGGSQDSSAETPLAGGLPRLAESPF
ASSAY TEXT: cell-based or functional assay
Bridge positions count the residues as written; N and C are the ends. Square brackets hold non-standard residues; d marks the D form. Ends that are not written are not given here. stapled body chem0212 = not defined here; αMeL = CC(C)C[C@](C)(N)C(=O)O; Aib = CC(C)(N)C(=O)O
# GCG EC50 (nM); cAMP, agonistic activity annotations

{"columns": ["BINDER", "GCG EC50 (nM); cAMP, agonistic activity"],
 "data": [
  ["Y[Aib]QGTFTSDYSI[αMeL]KDKKAQ[Aib]AFIEYLLEGGPSSGAPPPS-NH2 (linker 14-17 via (2-2-oxoethyl)‑glycine, AEEA, Lys, γGlu, C20 diacid) [Example 52]", "0.025 nM"],
  ["Y[Aib]QGTFTSDYSI[αMeL]LDKKAQ[Aib]KFIEFLLEGGPSSGAPPPS-NH2 (bridge 17-21; also: stapled body between K17 and K21 is given only as a drawing, not in text) [Example 9]", "0.022 nM"],
  ["Y[Aib]QGTFTSDYSI[αMeL]LDKKAQ[Aib]AFIEKLLEGGPSSGAPPPS-NH2 (linker 25-28 via Lys, AEEA, γGlu, C20 diacid) [Example 3]", "1.68 nM"],
  ["Y[Aib]QGTFTSDYSI[αMeL]LDKKAQ[Aib]KFIEFLLEGGPSSGAPPPS-NH2 (linker 17-21 via Ida, Lys, Lys, γGlu, C20 diacid) [Example 22]", "0.034 nM"],
  ["H[Aib]HGTFTSDYSIYLEKKYA[Aib]KFVQWLLEGGPSSGAPPPS-NH2 (bridge 17-21; not fully specified (bridges); also: stapled body (lipidated) structure only in drawing chem0198) [Example 5]", "0.012 nM"],
  ["Y[Aib]QGTFTSDYSI[αMeL]LDKKAQ[Aib]KFIEYLLEGGPSSGAPPPS-NH2 (bridge 17-21) [Example 8]", "0.012 nM"],
  ["Y[Aib]QGTFTSDYSI[αMeL]LDKKAQ[Aib]KFIEYLLKGGPSSGAPPPS-NH2 (linker 21-28 via stapled body chem0212; reading uncertain; also: further groups not given here) [Example 14]", "0.028 nM"],
  ["Y[Aib]QGTFTSDYSK[αMeL]LDKKAQ[Aib]AFIEFLLEGGPSSGAPPPS-NH2 (linker 12-16 via Ida, Lys, Lys, γGlu, C20 diacid; also: further groups not given here) [Example 28]", "0.11 nM"]
]}
